system: CaCo2; assay: MTS cell viability assay; format: cell-based, human; details: Homo sapiens, Caco-2, 96 h, read-out: Calculated IC50 after daily treatment for 96 h
quantity.measured: pIC50
Scale note: pIC50 = -log10(concentration in M).

Solved entries:
molecule: Clc1cccc(Nc2nc(SC3CCCC3)nc3c2cnn3CC(Cl)c2ccccc2)c1 (centres unmarked)
measured.target: CaCo2
reported.value: 5.68

molecule: Cc1nc(Nc2ncc(C(=O)Nc3c(C)cccc3Cl)s2)cc(N2CCN(CCO)CC2)n1 [Dasatinib, reference compound]
measured.target: CaCo2
reported.value: 6.36

molecule: CC(C)Sc1nc(NCCc2ccccc2)c2cnn(CC(Cl)c3ccccc3)c2n1 (centres unmarked)
measured.target: CaCo2
reported.value: 5.17

For the molecule shown here, Cc1nc(Nc2cccc(F)c2)c2cnn(CC(Cl)c3ccccc3)c2n1 (centres unmarked) , give the reported pIC50.
5.22

Try this molecule too: Cc1nc(Nc2cccc(Cl)c2)c2cnn(CC(Cl)c3ccccc3)c2n1 (centres unmarked)
5.24
